system: U937 cells; experiment: Counter screen: cell viability without TSQ cocktail (off target effect); format: cell-based; details: U937 without TSQ cocktail, compound at 5 uM
Decide using Off target effect (% cell death) at 5 uM alone. Strictly below 40%: class 1. Equal to or above 40%: class 0.

SMILES_CODE: NS(=O)(=O)c1cccc(Nc2nccc(N(c3ccc(NC(=O)Nc4ccc(OC(F)(F)F)cc4)cc3)C3CC3)n2)c1
TESTED_TARGET: U937 cells
CLASS_ASSIGNMENT: class 0

SMILES_CODE: CN(c1ccc(NC(=O)C(C)(C)c2ccc(OC(F)(F)F)cc2)cc1)c1ccnc(Nc2cccc(S(N)(=O)=O)c2)n1
TESTED_TARGET: U937 cells
CLASS_ASSIGNMENT: class 1

SMILES_CODE: CN(c1ccc(NC(=O)Nc2ccc(OC(F)(F)F)cc2)cc1)c1ccnc(Nc2cccc(S(C)(=O)=O)c2)n1
TESTED_TARGET: U937 cells
CLASS_ASSIGNMENT: class 0

SMILES_CODE: CN(c1ccc(NC(=O)Nc2ccc(OC(F)(F)F)cc2)cc1)c1ccnc(Nc2cccc(S(=O)(=O)N(C)C)c2)n1
TESTED_TARGET: U937 cells
CLASS_ASSIGNMENT: class 1

SMILES_CODE: NS(=O)(=O)c1cccc(Nc2nccc(Nc3ccc(NC(=O)Nc4ccc(OC(F)(F)F)cc4)cc3)n2)c1
TESTED_TARGET: U937 cells
CLASS_ASSIGNMENT: class 1

SMILES_CODE: Cc1ccc(Nc2nccc(N(C)c3ccc(NC(=O)Nc4ccc(OC(F)(F)F)cc4)cc3)n2)cc1C(=O)N(C)C
TESTED_TARGET: U937 cells
CLASS_ASSIGNMENT: class 1

SMILES_CODE: Cc1ccc(F)c(NC(=O)Nc2ccc(N(C)c3ccnc(Nc4cccc(S(N)(=O)=O)c4)n3)cc2)c1
TESTED_TARGET: U937 cells
CLASS_ASSIGNMENT: class 0

* * *

tested on: U937 cells; assay: Counter screen: cell viability without TSQ cocktail (off target effect); assay type: cell-based; details: U937 without TSQ cocktail, compound at 5 uM
MEASURED_QUANTITY: Off target effect (% cell death) at 5 uM (%)

SMILES_CODE: CN(c1ccc(NC(=O)Nc2cc(C(F)(F)F)ccc2F)cc1)c1ccnc(Nc2cccc(S(N)(=O)=O)c2)n1
BOUND_OPERATOR: =
ENDPOINT_RESULT: 86

SMILES_CODE: CN(c1cccc(NC(=O)Nc2ccc(OC(F)(F)F)cc2)c1)c1ccnc(Nc2cccc(S(N)(=O)=O)c2)n1
BOUND_OPERATOR: <
ENDPOINT_RESULT: 20

SMILES_CODE: CNS(=O)(=O)c1cccc(Nc2nccc(N(C)c3ccc(NC(=O)Nc4ccc(OC(F)(F)F)cc4)cc3)n2)c1
BOUND_OPERATOR: =
ENDPOINT_RESULT: 43

SMILES_CODE: CN(c1ccc(NC(=O)Nc2ccc(OC(F)(F)F)cc2)cc1)c1ccnc(Nc2cccc(S(N)(=O)=O)c2)c1
BOUND_OPERATOR: <
ENDPOINT_RESULT: 20

SMILES_CODE: CCN(c1ccc(NC(=O)Nc2ccc(OC(F)(F)F)cc2)cc1)c1ccnc(Nc2cccc(S(N)(=O)=O)c2)n1
BOUND_OPERATOR: =
ENDPOINT_RESULT: 43

SMILES_CODE: CN(c1ccc(NC(=O)Nc2ccc(OC(F)(F)F)cc2)cc1)c1ccnc(Nc2cccc(S(N)(=O)=O)c2)n1
BOUND_OPERATOR: =
ENDPOINT_RESULT: 60

SMILES_CODE: CN(c1ccc(NC(=O)Cc2ccc(OC(F)(F)F)cc2)cc1)c1ccnc(Nc2cccc(S(N)(=O)=O)c2)n1
BOUND_OPERATOR: <
ENDPOINT_RESULT: 20
